targetSystem: ligand binding domain of human RORγ (A262-S507) (Homo sapiens)
Construct: made in house; host or cells: E. coli
Sequence (P51449 262-507): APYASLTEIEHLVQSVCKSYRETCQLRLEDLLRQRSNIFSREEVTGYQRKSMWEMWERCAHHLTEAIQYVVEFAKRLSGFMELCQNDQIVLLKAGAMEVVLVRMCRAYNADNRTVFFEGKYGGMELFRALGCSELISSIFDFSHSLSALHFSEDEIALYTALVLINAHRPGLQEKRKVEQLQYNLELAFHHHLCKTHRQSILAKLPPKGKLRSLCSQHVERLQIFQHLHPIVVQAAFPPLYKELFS
assayProtocol: General RORγ SPA binding assay (competition with [3H]25-hydroxycholesterol)
conditionInfo: RORγ SPA binding assay, inhibition of [3H]25-hydroxycholesterol binding; read-out: IC50
pIC50: −log10 of the molar value.
assayEndpoint: pIC50

I = COc1ccccc1CC(=O)N1CCC(c2nc(C)ncc2C(=O)NCc2cc(C)cc(C)c2)CC1
II = CC(=O)N1CCN(CC(O)(COc2cccc(C(F)(F)F)n2)c2cnc(C)nc2C2CCN(C(=O)Nc3c(F)cccc3F)CC2)CC1 (stereo not shown)
*Q* Given the two records I and II , choose the one whose pIC50 value is lower. Reply briefly: the label of your chosen item.
*A* II

a = O=C(NNc1cccc(Cl)c1)c1cnc(C2CC2)nc1C1CCN(C(=O)Cc2c(F)cccc2F)CC1
b = Cc1cc(C)cc(CNC(=O)c2cnc(C)nc2C2CCN(C(=O)Cc3c(F)cccc3C(F)(F)F)CC2)c1
*Q* Given the two records a and b , choose the one whose pIC50 value is lower. Reply briefly: the label of your chosen item.
*A* b
(b: 8.11, a: 8.34)

###

targetSystem: ligand binding domain of human RORγ (A262-S507) (Homo sapiens)
Construct: made in house; host or cells: E. coli
assayProtocol: General RORγ SPA binding assay (competition with [3H]25-hydroxycholesterol)
conditionInfo: RORγ SPA binding assay, inhibition of [3H]25-hydroxycholesterol binding; read-out: IC50
pIC50: −log10 of the molar value.
assayEndpoint: pIC50

| compound | targetSystem | assayEndpoint | resultNumber |
| --- | --- | --- | --- |
| CSc1ncc(C(C)=NOc2ccnc(C(F)(F)F)c2)c(C2CCN(C(=O)Nc3c(F)cccc3F)CC2)n1 (mixture of isomers) [Compound B52] | ligand binding domain of human RORγ (A262-S507) (Homo sapiens) | pIC50 | 6.48 |
| Cc1nc(C)c(-c2nnc(-c3ccc(Cl)cn3)o2)c(C2CCN(C(=O)Cc3c(F)cccc3F)CC2)n1 [Compound C20] | ligand binding domain of human RORγ (A262-S507) (Homo sapiens) | pIC50 | 6.18 |
| Cc1ncc(C(=O)NCc2cccc(Cl)c2)c(C2(C)CCN(C(=O)Cc3c(F)cccc3F)CC2)n1 [Compound A102] | ligand binding domain of human RORγ (A262-S507) (Homo sapiens) | pIC50 | 5.76 |
| Cc1cc(C)cc(CNC(=O)c2cnc(C)nc2C2CCN(C(=O)Cc3ccc(F)c(F)c3)CC2)c1 [Compound A34] | ligand binding domain of human RORγ (A262-S507) (Homo sapiens) | pIC50 | 5.57 |

A = Cc1nc(C)c(-c2ncc(-c3ccnc(C(F)(F)F)n3)o2)c(C2CCN(C(=O)Nc3c(F)cccc3F)CC2)n1 [Compound C68]
B = C/C(=N\Oc1ccnc(C(F)(F)F)c1)c1cnc(N(C)C)nc1C1CCN(C(=O)Nc2c(F)cccc2F)CC1 [Compound B61]
C = CC(O)(COc1ccnc(C(F)(F)F)n1)c1cnc(N)nc1C1CCN(C(=O)Cc2c(F)cccc2F)CC1 (stereo not shown) [Compound D30]
D = Cc1nc(C)c(-c2nnc(-c3ccnc(Cl)c3)o2)c(C2CCN(C(=O)Cc3c(F)cccc3F)CC2)n1 [Compound C22]
*Q* Put the items in order so that reported pIC50 rises from first to last. Form field (ranking): labels in requested order.
*A* D, B, A, C
(D: 5.40, B: 6.44, A: 6.99, C: 8.37)

a = Cc1ncc(C(C)(O)COc2cccnc2)c(C2CCN(C(=O)Cc3c(F)cccc3F)CC2)n1 (stereo not shown) [Compound D14]
b = Cc1ncc(C(C)(O)CNc2ccnc(C(F)(F)F)n2)c(C2CCN(C(=O)Nc3c(F)cccc3F)CC2)n1 (stereo not shown) [Compound D17]
*Q* Which value of pIC50 is numerically greater: that of a or that of b ? Reply briefly: the label of your chosen item.
*A* b
(b: 7.05, a: 6.32)

P = CC(=O)NCCC(=O)NCC(O)(COc1cccc(C(F)(F)F)n1)c1cnc(C)nc1C1CCN(C(=O)Nc2c(F)cccc2F)CC1 (stereo not shown) [Compound N41]
Q = CC(O)(COc1ccnc(C(F)(F)F)n1)c1cnc(NCC(F)F)nc1C1CCN(C(=O)Nc2c(F)cccc2F)CC1 (stereo not shown) [Compound D39]
R = C/C(=N/Oc1ccnc(C(F)(F)F)c1)c1c(C)nc(C)nc1C1CCN(C(=O)Cc2c(F)cccc2F)CC1 [Compound B2]
S = O=C(NCc1ccc(Cl)c(Cl)c1)c1cncnc1C1CCN(C(=O)Cc2c(F)cccc2Cl)CC1 [Compound A6]
T = Cc1cc(C)cc(CNC(=O)c2cnc(C)nc2C2CCN(C(=O)Nc3ccccc3F)CC2)c1 [Compound A106]
*Q* Rank entries according to their pIC50, from the largest number down. Form field (ranking): labels in requested order.
*A* Q, S, P, T, R
(Q: 8.29, S: 7.58, P: 6.82, T: 6.57, R: 6.35)

Where do the numbers come from? From patent US10035790B2.
